experiment: Selectivity ratio of IC50 for rat L6 cells to IC50 for Plasmodium falciparum K1
Assay type: ADME, cell-based
condition.context: read-out: Ratio IC50

{"compound.structure.string": "c1ccc2[nH]c(-c3ccc(OCCOc4ccc(-c5nc6ccccc6[nH]5)cc4)cc3)nc2c1", "selectivity ratio": 13}
{"compound.structure.string": "c1cc(OCCCCCCCCOc2cccc(-c3nc4ccccc4[nH]3)c2)cc(-c2nc3ccccc3[nH]2)c1", "selectivity ratio": 29}
{"compound.structure.string": "c1cc(OCCCCCCCCCOc2cccc(-c3nc4ccccc4[nH]3)c2)cc(-c2nc3ccccc3[nH]2)c1", "selectivity ratio": 39}
{"compound.structure.string": "c1cc(OCCCCCCOc2cccc(-c3nc4ccccc4[nH]3)c2)cc(-c2nc3ccccc3[nH]2)c1", "selectivity ratio": 29}
{"compound.structure.string": "c1ccc2[nH]c(-c3ccc(OCCCCCOc4ccc(-c5nc6ccccc6[nH]5)cc4)cc3)nc2c1", "selectivity ratio": 26}
{"compound.structure.string": "c1cc(OCc2ccccc2COc2cccc(-c3nc4ccccc4[nH]3)c2)cc(-c2nc3ccccc3[nH]2)c1", "selectivity ratio": 20}
{"compound.structure.string": "c1cc(OCCCOc2cccc(-c3nc4ccccc4[nH]3)c2)cc(-c2nc3ccccc3[nH]2)c1", "selectivity ratio": 4}
{"compound.structure.string": "c1ccc2[nH]c(-c3ccc(OCOc4ccc(-c5nc6ccccc6[nH]5)cc4)cc3)nc2c1", "selectivity ratio": 21}
{"compound.structure.string": "c1ccc2[nH]c(-c3ccc(OCCCCCCCCCOc4ccc(-c5nc6ccccc6[nH]5)cc4)cc3)nc2c1", "selectivity ratio": 344}
{"compound.structure.string": "c1ccc2[nH]c(-c3ccc(OCCCCCCCCOc4ccc(-c5nc6ccccc6[nH]5)cc4)cc3)nc2c1", "selectivity ratio": 67}
